Tested on: HOP-92 NSCLC
Assay info: NCI tumour cell line growth inhibition, 48 h
Assay readout: log10(TGI) (log10 of the value in µM)
Please interpret these as log10 of TGI where TGI is in µM.

{"Compound": "CC(=O)c1ccc2c(c1)N(CCCN(C)C)c1ccccc1S2", "Experimental value": 1.73}

**Q:** Tell me its log10(TGI) given CN(C)Cc1cc(C(=O)/C=C/c2ccc(F)cc2)cc(CN(C)C)c1O as the entry.
**A:** 1.99

**Q:** Tell me its log10(TGI) given CCN(Cc1cccc(F)c1F)c1ccc(CO)c(Cl)c1 as the entry.
**A:** 0.92

**Q:** Tell me its log10(TGI) given CC(=O)OCCOCCN1CCN(c2c(O)c3c(c(O)c2Cl)C(=O)C=CC3=O)CC1 as the entry.
**A:** -0.09

**Q:** Tell me its log10(TGI) given C[C@@](O)(/C=C/[C@H]1CC=CC(=O)O1)[C@@H](C[C@@H](O)\C=C/C=C\C=C\CO)OP(=O)(O)O as the entry.
**A:** 1.03

**Q:** Tell me its log10(TGI) given CCCCCSC1C2C(=O)C(Br)=CC13CCNc1c(O)c4c5c(c13)=[N+]2CCC=5C=N4 (stereo unspecified) as the entry.
**A:** 0.79

**Q:** Tell me its log10(TGI) given Cc1cc(C)c2c(=O)cc(-c3ccc4ccccc4c3)[nH]c2n1 as the entry.
**A:** 1.90

**Q:** Tell me its log10(TGI) given C[N+](C)(C)C(C1=CCCC1=O)c1ccccc1 (stereo unspecified) as the entry.
**A:** 1.93

**Q:** Tell me its log10(TGI) given NCCN1C(=O)c2ccccc2C1(O)c1ccc(Cl)cc1 (stereo unspecified) as the entry.
**A:** 1.54

**Q:** Tell me its log10(TGI) given CCCCS(=O)CC(CO)NC(=O)/C=C/c1c(C)[nH]c(=O)[nH]c1=O (stereo unspecified) as the entry.
**A:** 2.00

**Q:** Tell me its log10(TGI) given Cc1cc(=O)c2ccccc2n1CCCCCCCCCCn1c(C)cc(=O)c2ccccc21 as the entry.
**A:** 1.59

**Q:** Tell me its log10(TGI) given Oc1ccccc1C=Nc1ccccc1N=Cc1ccccc1O.[Cu+2] as the entry.
**A:** 0.95

**Q:** Tell me its log10(TGI) given CC/C=C\C[C@H](O)C/C=C1/C(=O)C=C[C@@H]1C/C=C\CCCC(=O)NC as the entry.
**A:** 0.82

###

Tested on: HS 578T breast
Assay info: NCI tumour cell line growth inhibition, 48 h
Assay readout: GI50

Worked cases, GI50 given:
{"Compound": "CCN(CC)CCCNc1[nH]ncc2c(C)c3nc4ccccc4c3cc12", "GI50": "0.449 µM"}
{"Compound": "CC(C)(C)OC(=O)NCCCCCCCCCCn1c2c(c3ccccc3c1=O)C(=O)c1ccccc1-2", "GI50": "24.6 µM"}
{"Compound": "COc1ccc(C#CC2=C(c3cc(OC)c(OC)c(OC)c3)C(=O)OC2)cc1", "GI50": "13.1 µM"}
{"Compound": "CC(=O)/C(=C\\c1c(-c2ccccc2)[nH]c2ccccc12)S(=O)(=O)c1ccccc1", "GI50": "3.81 µM"}
{"Compound": "COc1ccc(-c2nnc(Nc3nc(O)c(C4=c5cc(F)ccc5=NC4=O)s3)o2)cc1", "GI50": "69.1 µM"}

**Q:** Tell me its GI50 given O=C(c1ccccc1)c1nn(-c2ccccc2)c2nc3nc(-c4ccccc4)cc(=O)n3nc12 as the entry.
**A:** 44.6 µM

**Q:** Tell me its GI50 given CC1(C)CC(=O)c2c(ccc(C(=O)C[C@@H](N)CO)c2N)O1 as the entry.
**A:** 20.6 µM

**Q:** Tell me its GI50 given Nc1cc2nc3ccccc3oc-2cc1=O as the entry.
**A:** 1.48 µM

**Q:** Tell me its GI50 given O=S(=O)(NCCO)c1cc[c]([Sb](=[O])([OH])[OH])cc1 as the entry.
**A:** > 100 µM

**Q:** Tell me its GI50 given CC(OC(=O)N(N(CCCl)S(C)(=O)=O)S(C)(=O)=O)c1ccc([N+](=O)[O-])cc1 (stereo not given) as the entry.
**A:** > 54.7 µM

Each recorded value in this set is attributed to PubChem BioAssay (NCI).
